Tested System: Human Factor B (human) (UniProt P00751)
Sequence (P00751 26-764 limits assumed): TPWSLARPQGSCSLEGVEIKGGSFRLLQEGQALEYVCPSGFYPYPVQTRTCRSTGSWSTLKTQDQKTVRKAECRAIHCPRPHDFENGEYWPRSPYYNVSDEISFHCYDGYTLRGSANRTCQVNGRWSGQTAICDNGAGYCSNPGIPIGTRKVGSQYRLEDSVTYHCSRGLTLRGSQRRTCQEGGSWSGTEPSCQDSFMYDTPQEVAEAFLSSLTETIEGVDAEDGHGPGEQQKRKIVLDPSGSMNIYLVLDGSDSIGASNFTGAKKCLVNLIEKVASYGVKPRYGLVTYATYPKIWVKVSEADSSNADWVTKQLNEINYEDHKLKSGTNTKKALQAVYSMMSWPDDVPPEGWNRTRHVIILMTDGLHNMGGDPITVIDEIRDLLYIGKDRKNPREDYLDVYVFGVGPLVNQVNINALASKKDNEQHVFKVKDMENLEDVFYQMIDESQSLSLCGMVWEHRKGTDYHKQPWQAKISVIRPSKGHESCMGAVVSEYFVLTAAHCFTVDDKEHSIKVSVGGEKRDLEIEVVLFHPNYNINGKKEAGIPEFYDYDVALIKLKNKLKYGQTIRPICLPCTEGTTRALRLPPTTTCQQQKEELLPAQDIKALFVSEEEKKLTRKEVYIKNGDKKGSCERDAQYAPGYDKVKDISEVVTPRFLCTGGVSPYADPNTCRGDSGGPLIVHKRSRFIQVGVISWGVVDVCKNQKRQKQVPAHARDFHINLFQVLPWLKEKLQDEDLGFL
Test: cell-based or functional assay
Quick rule for you: fB Cleavage EC50 under 300 nM gets TRUE, anything else gets FALSE.

Worked examples, 4 binders total:
chymase C22S/F41L/L99H/F173L/Y215K/A226R (enzyme) IIGGTESKPHSRPYMAYLEIVTSNGPSKLCGGFLIRRNFVLTAAHCAGRSITVTLGAHNITEEEDTWQKLEVIKQFRHPKYNTSTHHHDIMLLKLKEKASLTLAVGTLPFPSQFNFVPPGRMCRVAGWGRTGVLKPGSDTLQEVKLRLMDPQACSHLRDFDHNLQLCVGNPRKTKSAFKGDSGGPLLCAGVAQGIVSKGRSDAKPPRVFTRISHYRPWINQILQAN    FALSE
chymase C22S/F41L/L99H/G151T/F173Y/Y215K/A226R (enzyme) IIGGTESKPHSRPYMAYLEIVTSNGPSKLCGGFLIRRNFVLTAAHCAGRSITVTLGAHNITEEEDTWQKLEVIKQFRHPKYNTSTHHHDIMLLKLKEKASLTLAVGTLPFPSQFNFVPPGRMCRVAGWGRTGVLKPTSDTLQEVKLRLMDPQACSHYRDFDHNLQLCVGNPRKTKSAFKGDSGGPLLCAGVAQGIVSKGRSDAKPPRVFTRISHYRPWINQILQAN    FALSE
chymase C22S/P38Q/K40M/F41R/D175N/V213Q/S218V/A226R/F228A (enzyme) IIGGTESKPHSRPYMAYLEIVTSNGQSMRCGGFLIRRNFVLTAAHCAGRSITVTLGAHNITEEEDTWQKLEVIKQFRHPKYNTSTLHHDIMLLKLKEKASLTLAVGTLPFPSQFNFVPPGRMCRVAGWGRTGVLKPGSDTLQEVKLRLMDPQACSHFRNFDHNLQLCVGNPRKTKSAFKGDSGGPLLCAGVAQGIQSYGRVDAKPPRVATRISHYRPWINQILQAN    FALSE
chymase C22S/P38Q/K40M/F41R/L99Y/V138I/F173Y/D175S/A190S/V213A/S218V/A226R (enzyme) IIGGTESKPHSRPYMAYLEIVTSNGQSMRCGGFLIRRNFVLTAAHCAGRSITVTLGAHNITEEEDTWQKLEVIKQFRHPKYNTSTYHHDIMLLKLKEKASLTLAVGTLPFPSQFNFVPPGRMCRIAGWGRTGVLKPGSDTLQEVKLRLMDPQACSHYRSFDHNLQLCVGNPRKTKSSFKGDSGGPLLCAGVAQGIASYGRVDAKPPRVFTRISHYRPWINQILQAN    TRUE

With those in mind, consider the next binder.
(Q) Please check: fB Cleavage EC50 for chymase C22S/P38Q/K40M/F41R/V138I/F173S/D175Y/A190S/V213A/S218V/A226R (enzyme) IIGGTESKPHSRPYMAYLEIVTSNGQSMRCGGFLIRRNFVLTAAHCAGRSITVTLGAHNITEEEDTWQKLEVIKQFRHPKYNTSTLHHDIMLLKLKEKASLTLAVGTLPFPSQFNFVPPGRMCRIAGWGRTGVLKPGSDTLQEVKLRLMDPQACSHSRYFDHNLQLCVGNPRKTKSSFKGDSGGPLLCAGVAQGIASYGRVDAKPPRVFTRISHYRPWINQILQAN , strictly under 300 nM or not?
(A) TRUE

These data points were gathered from patent US20240117334A1.
